- Test system: human red blood cells (HRBCs)
- assay-text: Hemolytic assay on human red blood cells
- Assay type: cell-based
- applied-conditions: human red blood cells 5% (v/v) in PBS, peptide 10-320 μg/mL twofold dilutions, 37 °C 1 h, OD 540 nm, 1% Triton X-100 = 100%, four-parameter logistic fit of mean of three independent experiments; '-' = hemolytic activity too low to calculate the EC50; read-out: HRBC EC50 (hemolytic activity)
pEC50: −log10 of the molar value. Ends that are not written are not given here.
Returns one of class 1 or class 0; class 1 when pEC50 is >= 4.

| substance | group-label |
| --- | --- |
| LKLLGIVKKVLGAI-NH2 [EMP-EM2] | class 0 |
| LNFKALAALAKKIL-NH2 [Pm-R2] | class 0 |
| INLKGLIKKVASLLT-OH [EpVP1] | class 0 |
| INWLKLGKKVSAIL-NH2 [Protopolybia-MP I] | class 0 |
| INWLKLGKKILGAI-NH2 [Pm-R1] | class 1 |

Prompt line: Item INLKAIAALVKKVL-NH2 [HR1] with pEC50 of 4 or above?
Response line: class 0

Prompt line: I'd appreciate it if you could say whether INLKALAALVKKVL-NH2 [Mastoparan-II] has pEC50 at least equal to 4.
Response line: class 0

Prompt line: Say whether VDWKKIGQHILSVL-NH2 [Mastoparan-J] shows pEC50 of 4 or more.
Response line: class 1

Prompt line: For this substance, is measured pEC50 4 or higher? INWKKIAEIGKQVLSAL-NH2 [Dominulin B]
Response line: class 0

Prompt line: Answer whether pEC50 of INLKVFAALVKKFL-NH2 [Mastoparan-T1] is greater than or equal to 4.
Response line: class 1

Prompt line: Dear colleague, could you confirm whether LNLKGLIKKVASLLN-OH [Eumenitin-R] has pEC50 at or above 4?
Response line: class 0

Prompt line: Hi, just wondering whether INLKAIAALAKKLF-NH2 [Mastoparan AF] shows pEC50 of 4 or higher.
Response line: class 0

Prompt line: # check: pEC50 of INWKAIIEAAKQAL-NH2 [Protopolybia-MPII] is greater than or equal to 4
Response line: class 0

* * *

- Tested on: human red blood cells (HRBCs)
- assay-text: Hemolytic assay on human red blood cells
- Type: cell-based
- applied-conditions: human red blood cells 5% (v/v) in PBS, peptide 320 μg/mL (highest dose), 37 °C 1 h, OD 540 nm, PBS = 0%, 1% Triton X-100 = 100%, mean of three independent experiments
Ends that are not written are not given here.
Entries whose HRBC Hemolysis (hemolysis rate at 320 μg/mL) is below 20% take true (1); entries at or above 20% take false (0).

See these solved cases before continuing.
| substance | group-label |
| --- | --- |
| INWLKLGKMVIDAL-NH2 [Polybia-MP II] | false (0) |
| INWLKLGKAVIDAL-NH2 [Protopolybia-MPIII] | false (0) |
| VDWKKIGQHILSVL-NH2 [Mastoparan-J] | false (0) |
| INWLKLGKKMMSAL-NH2 [MP] | false (0) |
| INLKVFAALVKKLL-NH2 [Mastoparan-T2] | false (0) |
| INWKGIAAMKKLL-NH2 [Mastoparan-like peptide 12b] | true (1) |
| INWKKIAEVGGKILSSL-NH2 [Dominulin A] | true (1) |
| INMKAVAAVAKKPL-NH2 [MP-VB2] | true (1) |
| INLKVFAALVKKFL-NH2 [Mastoparan-T1] | false (0) |
| INLKAIAAFAKKLL-NH2 [Mastoparan-T(D)] | true (1) |

Prompt line: Strictly below 20%: is that where HRBC Hemolysis (hemolysis rate at 320 μg/mL) of INWKKIAEIGKQVLSAL-NH2 [Dominulin B] sits?
Response line: true (1)

Prompt line: Is it true that HRBC Hemolysis (hemolysis rate at 320 μg/mL) reported for INWLKLGKAIIDAL-NH2 [Agelaia-MPI] is less than 20%?
Response line: false (0)

The measurements presented in this section are drawn from paper PMC10611374.
